# credit: patent US12662541B2

target: T1, rhEphA5 antigen (Homo sapiens, UniProt P54756); test: kd (1/s)
T1 construct: purchased R and D systems 3036-A5
Reported kd values for the following molecules.
Please reply with the bare figure in s⁻¹ and do not write the unit itself.

INSERT INTO measurements (molecule, unit, resultvalue) VALUES
  ('VH0/VK0: chimeric antibody with murine 11C12 variable regions (SEQ ID NO:1, 8) and human IgG1/kappa constant regions (antibody, V domains shown, human IgG1/kappa constant regions) VH: EVTLKESGGGLVQPGGSRKLSCAASGFTFSTFGIHWVRQAPEKGLEWVAYISGASTTIYYADTVKGRFTISRDNPKNTLFLQMTSLRSEDTAMYYCARYGTSFPYGLDYWGQGTSVTVSS VL: DIVMTQSPGSLAVSLGQRATISCKASQSVDYDGDSYMNWYQQKPGQPPKLLIYGASNLESGIPARFSGSGSGTDFTLNIHPVEEEDAASYYCQQSNEDPFTFGSGTKLEIK', 's⁻¹', 0.00153);

// next entry
Request: # lookup: kd of VH1/VK2: humanized anti-EphA5 antibody, VH SEQ ID NO:2, VL SEQ ID NO:10 (antibody, V domains shown) VH: EVTLVESGGGLVQPGGSRKLSCAASGFTFSTFGIHWVRQAPGKGLEWVAYISGASTTIYYADTVKGRFTISRDNSKNTLYLQMNSLRSEDTAMYYCARYGTSFPYGLDYWGQGTSVTVSS VL: DIVMTQSPDSLAVSLGERATINCKASQSVDYDGDSYMNWYQQKPGKAPKLLIYGASNLESGIPDRFSGSGSGTDFTLTISRLEPEDAASYYCQQSNEDPFTFGQGTKLEIK
Result: 0.00126
